test: miR-122 upregulation in Huh7 hepatoma cells – cell-based, qRT-PCR, dry powder, orthogonal assay, dose response (AID 720726); conditions: Huh7 miR-122 levels, qRT-PCR, 48 h; at 35 µM (top of the series)
Active and inactive are the calls of the source.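 The calls were made as follows: active = fitted dose curve rising to 40 percent activity within the top usable dose; inconclusive = flat curve between 30 and 70 percent, or poor fit; inactive = the rest, including signal moving the wrong way.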
miR-122 fold change overview

Consider the worked cases shown below.
| input smiles | miR-122 fold change |
| --- | --- |
| O=C(c1ccc(CNc2c(NC3CCCCC3)c(=O)c2=O)cc1)N1CCc2ccccc21 | 0.521 fold change (inactive) |
| COCC(=O)N(C)C[C@H]1Oc2cc(-c3ccc(C#N)cc3)ccc2S(=O)(=O)N([C@@H](C)CO)C[C@H]1C | 1.17 fold change (inactive) |

Answer with the recorded miR-122 fold change of CN1C(=O)c2cc(NC(=O)c3cccc(F)c3)ccc2OC[C@H]2O[C@@H](CC(=O)O)CC[C@H]21 only.
1.38 fold change (inactive)

Answer with the recorded miR-122 fold change of O=S(=O)(NCCc1ccncc1)c1ccccc1 only.
1.01 fold change (inactive)

Answer with the recorded miR-122 fold change of C[C@H]1CN([C@@H](C)CO)C(=O)c2cc(C#Cc3ccccc3F)cnc2O[C@H]1CN(C)C(=O)C1CCCCC1 only.
0.569 fold change (inactive)

====

miR-122 fold change overview
experiment: miR-122 upregulation in Huh7 hepatoma cells – cell-based, qRT-PCR, dry powder, orthogonal assay, dose response (AID 720726); conditions: Huh7 miR-122 levels, qRT-PCR, 48 h; at 35 µM (top of the series)
Calls of active or inactive are those of the source.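 How the source made its calls: active means fitted dose curve rising to 40 percent activity within the top usable dose; inconclusive means flat curve between 30 and 70 percent, or poor fit; inactive means the rest, including signal moving the wrong way.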

Answer with the recorded miR-122 fold change of C[C@H]1CN([C@@H](C)CO)C(=O)c2cc(-c3ccc(C#N)cc3)cnc2O[C@H]1CN(C)C(=O)Nc1ccc(C(F)(F)F)cc1 only.
0.749 fold change (inactive)

Answer with the recorded miR-122 fold change of CN(CC(=O)Nc1cccc(Cl)c1)S(=O)(=O)c1ccc2c(c1)n(C)c(=O)c(=O)n2C only.
1.27 fold change (inactive)

Answer with the recorded miR-122 fold change of COc1cccc(C(=O)Nc2ccc3c(c2)C(=O)N(C)C[C@@H](OC)[C@@H](C)CN[C@@H](C)CO3)c1 only.
1.15 fold change (inactive)

Answer with the recorded miR-122 fold change of CN1C(=O)c2cc(NC(=O)c3cccc(F)c3)ccc2OC[C@@H]2O[C@H](CC(=O)O)CC[C@@H]21 only.
0.92 fold change (inactive)

Answer with the recorded miR-122 fold change of C[C@@H]1CN([C@H](C)CO)S(=O)(=O)c2ccc(/C=C/c3ccccc3)cc2O[C@@H]1CN(C)C(=O)c1cccnc1 only.
1.11 fold change (inactive)

Answer with the recorded miR-122 fold change of Nc1ccc(Oc2ccc(Cl)cc2)cc1 only.
0.496 fold change (inactive)

====

miR-122 fold change overview
assay: miR-122 upregulation in Huh7 hepatoma cells – cell-based, qRT-PCR, dry powder, orthogonal assay, dose response (AID 720726); conditions: Huh7 miR-122 levels, qRT-PCR, 48 h; at 35 µM (top of the series)
Calls of active or inactive are those of the source.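 How the source made its calls: active means fitted dose curve rising to 40 percent activity within the top usable dose; inconclusive means flat curve between 30 and 70 percent, or poor fit; inactive means the rest, including signal moving the wrong way.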

Answer with the recorded miR-122 fold change of Cn1c(=O)c(=O)n(C)c2cc(S(=O)(=O)N3CCOCC3)ccc21 only.
1.28 fold change (inactive)

Answer with the recorded miR-122 fold change of C[C@H](CO)N1C[C@H](C)[C@@H](CN(C)C(=O)C2CCOCC2)Oc2cc(C#Cc3ccncc3)ccc2S1(=O)=O only.
0.407 fold change (inactive)

====

miR-122 fold change overview
experiment: miR-122 upregulation in Huh7 hepatoma cells – cell-based, qRT-PCR, dry powder, orthogonal assay, dose response (AID 720726); conditions: Huh7 miR-122 levels, qRT-PCR, 48 h; at 35 µM (top of the series)
The source made the active and inactive calls.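 Rule for the calls: active = fitted dose curve rising to 40 percent activity within the top usable dose; inconclusive = flat curve between 30 and 70 percent, or poor fit; inactive = the rest, including signal moving the wrong way.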

Consider the worked cases shown below.
| input smiles | miR-122 fold change |
| --- | --- |
| CN1C(=O)c2cc(NC(=O)c3cccc(F)c3)ccc2OC[C@H]2O[C@H](CC(=O)O)CC[C@@H]21 | 0.869 fold change (inactive) |
| C[C@H]1CN([C@@H](C)CO)C(=O)c2cc(C#Cc3ccccc3F)cnc2O[C@@H]1CN(C)C(=O)C1CCCCC1 | 0.164 fold change (inactive) |

Answer with the recorded miR-122 fold change of C[C@H](CO)N1C[C@H](C)[C@H](CN(C)C(=O)C2CCOCC2)Oc2cc(C#Cc3ccncc3)ccc2S1(=O)=O only.
0.417 fold change (inactive)

====

miR-122 fold change overview
assay: miR-122 upregulation in Huh7 hepatoma cells – cell-based, qRT-PCR, dry powder, orthogonal assay, dose response (AID 720726); conditions: Huh7 miR-122 levels, qRT-PCR, 48 h; at 35 µM (top of the series)
Calls of active or inactive are those of the source.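 Rule for the calls: active = fitted dose curve rising to 40 percent activity within the top usable dose; inconclusive = flat curve between 30 and 70 percent, or poor fit; inactive = the rest, including signal moving the wrong way.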

Consider the worked cases shown below.
| input smiles | result |
| --- | --- |
| Cc1cc(C(C)(C)C)cc(S(=O)(=O)NCCc2ccncc2)c1C | 1.04 fold change (inactive) |
| C/C=C/c1cnc2c(c1)C(=O)N([C@@H](C)CO)C[C@H](C)[C@H](CN(C)S(=O)(=O)c1ccc(OC)cc1)O2 | 1.05 fold change (inactive) |
| CO[C@@H]1CN(C)C(=O)c2cc(NC(=O)c3cccc(Oc4ccccc4)c3)ccc2OC[C@H](C)NC[C@@H]1C | 0.113 fold change (inactive) |

Answer with the recorded miR-122 fold change of O=C(Nc1ccc(-c2nc3ccccc3o2)cc1)c1cc(-n2cnnc2)ccc1Cl only.
0.17 fold change (inactive)

Answer with the recorded miR-122 fold change of CN1C(=O)c2cc(NC(=O)c3cccc(F)c3)ccc2OC[C@@H]2O[C@H](CC(=O)O)CC[C@H]21 only.
0.958 fold change (inactive)

Answer with the recorded miR-122 fold change of Cc1cccc(NC(=O)Nc2ccc3c(c2)C(=O)N(C)[C@@H]2CC[C@@H](CC(=O)NCc4ccccc4Cl)O[C@H]2CO3)c1 only.
1.25 fold change (inactive)

Answer with the recorded miR-122 fold change of CN(C)CCCOc1nn(Cc2ccccc2)c2ccccc12 only.
1.5 fold change (inactive)

Answer with the recorded miR-122 fold change of COCC(=O)N(C)C[C@H]1Oc2cc(-c3ccc(C#N)cc3)ccc2S(=O)(=O)N([C@H](C)CO)C[C@H]1C only.
0.895 fold change (inactive)

Answer with the recorded miR-122 fold change of CO[C@@H]1CN(C)C(=O)c2cc(NS(=O)(=O)c3ccc(Oc4ccccc4)cc3)ccc2OC[C@H](C)NC[C@@H]1C only.
0.882 fold change (inactive)

Answer with the recorded miR-122 fold change of Cc1cc(C(C)(C)C)cc(S(=O)(=O)N2CCOCC2)c1C only.
0.977 fold change (inactive)

Answer with the recorded miR-122 fold change of O=C(CNCCC1=CCCCC1)Nc1ccccc1N1CCCCCC1 only.
0.489 fold change (inactive)

Answer with the recorded miR-122 fold change of CO[C@@H]1CN(C)C(=O)c2cc(NC(=O)c3ccc4c(c3)OCO4)ccc2OC[C@H](C)NC[C@@H]1C only.
1.02 fold change (inactive)

Answer with the recorded miR-122 fold change of CN1C(=O)c2cc(NC(=O)c3cccc(F)c3)ccc2OC[C@H]2O[C@H](CC(=O)O)CC[C@H]21 only.
0.909 fold change (inactive)

Answer with the recorded miR-122 fold change of O=C(NCCC1=CCCCC1)c1ccc2c(c1)sc1nc(-c3ccccc3)cn12 only.
0.828 fold change (inactive)

Answer with the recorded miR-122 fold change of COCC(=O)N(C)C[C@H]1Oc2cc(C#Cc3cccnc3)ccc2S(=O)(=O)N([C@@H](C)CO)C[C@H]1C only.
0.983 fold change (inactive)

Answer with the recorded miR-122 fold change of Nc1ccc(Oc2ccc(Br)cc2)cc1 only.
0.505 fold change (inactive)

Answer with the recorded miR-122 fold change of CNC[C@@H]1Oc2cc(C#CC3CCCCC3)ccc2S(=O)(=O)N([C@@H](C)CO)C[C@@H]1C only.
1.07 fold change (inactive)

Answer with the recorded miR-122 fold change of CCOC(=O)N1CCC(NC(=O)c2ccc3c(c2)sc2nc(-c4ccccc4)cn23)CC1 only.
0.356 fold change (inactive)

====

test: miR-122 upregulation in Huh7 hepatoma cells – cell-based, qRT-PCR, dry powder, orthogonal assay, dose response (AID 720726); details: Huh7 miR-122 levels, qRT-PCR, 48 h; at 35 µM (top of the series)
Activity calls are given as the source filed them.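 Rule for the calls: active = fitted dose curve rising to 40 percent activity within the top usable dose; inconclusive = flat curve between 30 and 70 percent, or poor fit; inactive = the rest, including signal moving the wrong way.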
miR-122 fold change overview

Consider the worked cases shown below.
| input smiles | miR-122 fold change |
| --- | --- |
| COc1ccc(-c2cnc3c(c2)C(=O)N([C@@H](C)CO)C[C@H](C)[C@H](CN(C)S(=O)(=O)c2ccc(OC)cc2)O3)cc1 | 1.26 fold change (inactive) |
| C[C@H]1CN([C@@H](C)CO)S(=O)(=O)c2ccc(C#Cc3ccncc3)cc2O[C@H]1CN(C)C(=O)C1CCOCC1 | 0.373 fold change (inactive) |

Proceed to the following item.
Answer with the recorded miR-122 fold change of CCCCN(CCCC)C(=O)CN(C)S(=O)(=O)c1ccc2c(c1)n(C)c(=O)c(=O)n2C only.
0.906 fold change (inactive)
